FYI, the data here is from patent US20150376172A1.

- measured_target: BACE1 (Homo sapiens, UniProt P56817)
- Construct: endogenous in cells
- Sequence (P56817 46-501): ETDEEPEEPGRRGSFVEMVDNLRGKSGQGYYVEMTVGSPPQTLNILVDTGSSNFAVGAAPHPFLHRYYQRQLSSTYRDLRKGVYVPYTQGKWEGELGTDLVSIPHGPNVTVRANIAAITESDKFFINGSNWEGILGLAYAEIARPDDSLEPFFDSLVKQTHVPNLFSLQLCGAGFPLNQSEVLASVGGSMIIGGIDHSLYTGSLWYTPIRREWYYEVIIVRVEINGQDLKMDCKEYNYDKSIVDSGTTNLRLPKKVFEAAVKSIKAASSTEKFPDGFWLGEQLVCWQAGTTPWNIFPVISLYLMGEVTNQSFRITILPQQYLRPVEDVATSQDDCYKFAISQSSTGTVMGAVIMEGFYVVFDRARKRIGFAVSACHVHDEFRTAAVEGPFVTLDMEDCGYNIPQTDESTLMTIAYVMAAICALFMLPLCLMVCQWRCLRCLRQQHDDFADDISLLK
- protocol: Cellular Aβ-lowering assay (Abeta 40 AlphaLISA)
- study_conditions: HEK293 APP cells; 18-20 hrs incubation; Aβ 40 in culture supernatants by AlphaLISA; read-out: BACE1 cell act. Aβ40 IC50
pIC50: −log10 of the molar value. Counter-ions that a name gives are not always drawn.
Decision: pIC50 >= 7 yields condition met, all other cases yield condition not met.

As a guide, the following entries are already answered.
molecule="COc1cnc(C(=O)Nc2ccc(F)c([C@@]3(C)N=C(N)O[C@H](C(F)(F)F)[C@@H]3F)c2)cn1 [Example 5]" group="condition met"
molecule="Cc1cc(F)c([C@]2(C)C[C@@H](C(F)(F)F)OC(N)=N2)cc1C#Cc1ccc(C#N)cn1 [Example 70]" group="condition not met"
molecule="C[C@]1(c2cc(NC(=O)c3ccc(Cl)cn3)ccc2F)N=C(N)O[C@H](C(F)(F)F)[C@@H]1F [Example 4]" group="condition met"
molecule="C[C@@]1(c2cc(C#Cc3cncc(C#N)c3)ccc2F)C[C@@H](C(F)(F)F)OC(N)=N1 [Example 56]" group="condition not met"
molecule="C[C@@]1(c2cc(C#Cc3ccc(C#N)nc3)ccc2F)C[C@@H](C(F)(F)F)OC(N)=N1 [Example 46]" group="condition not met"

In: Hi, just wondering whether C[C@@]1(c2cc(-c3cccnc3F)cs2)C[C@@H](C(F)(F)F)OC(N)=N1 [Example 27, Hydrochloride] shows pIC50 of 7 or higher.
Out: condition not met

In: Param item: C[C@@]1(c2cc(C#Cc3ccc(C#N)cc3)ccc2F)C[C@@H](C(F)(F)F)OC(N)=N1 [Example 66]
Out: condition not met
